# test target: ScBbc1
# experiment description: SPOT peptide array binding signal intensity (averaged, normalized) (arbitrary units (background-subtracted, floor 0; scale differs between SH3 domains)); higher = stronger binding of the SH3 domain to the peptide
assay readout: SPOT peptide array binding signal intensity
Numbers only.

{"binder": "RSRRSSFAYPQQVAI", "measured": 24.5}

Let's switch to this binder now.
### Prompt Fill blank: measured SPOT peptide array binding signal intensity of the binder NPLPKEPRLPKRKVA is ____.
### Response 168
